System: Aβ1-42 production in H4 cells stably transfected with APP751 containing the Swedish mutation
Experiment: Cellular assay for inhibition of Aβ1-42 production (H4 APP751 SWE clone 8.20)
Type: cell-based
Details: 19 h, H4 APP751 SWE clone 8.20 cells, 19 h incubation; read-out: Aβ42 cellular IC50
Recorded endpoint: pIC50
Answers are plain numbers, as −log10 of the molar value.

Worked cases, answers included:
Molecule | Value reported
C[C@]12N=C(N)SC[C@H]1CCOc1ccc(Nc3ncccc3Cl)cc12 (relative stereo) | 5.85
C[C@]12N=C(N)SC[C@H]1CCCc1ccc(Br)cc12 (relative stereo) | 5.60

// sample C[C@@]12N=C(N)SC[C@@H]1CCOc1ccc(NC(=O)c3ncc(Cl)cc3Cl)cc12 [Example 34b] , its pIC50 was 6.10

* * *

Please go through the items and note down their pIC50.
Test system: Aβ1-42 production in H4 cells stably transfected with APP751 containing the Swedish mutation
Test: Cellular assay for inhibition of Aβ1-42 production (H4 APP751 SWE clone 8.20)
Type: cell-based
Conditions: 19 h, H4 APP751 SWE clone 8.20 cells, 19 h incubation; read-out: Aβ42 cellular IC50
Experimental: Cellular Assays for Inhibition of Aβ1-40 and Aβ1-42 Production H4 cells stably transfected with APP751 containing the Swedish mutation (H4 APP751 SWE clone 8.20, developed at BMS) were maintained in log phase through twice weekly passage at a 1:20 split. […] Following incubation for 19 h in 5% CO2 at 37° C., plates were briefly centrifuged (1000 rpm, 5 min). […] Signal was determined using a Viewlux counter (Perkin Elmer) and IC50 values determined using curve fitting in CurveMaster (Excel Fit based).
One number for each entry, as −log10 of the molar value.

Worked cases, answers included:
Compound | Recorded endpoint | Value reported
COc1ccnc(Nc2ccc3c(c2)[C@@]2(C)N=C(N)SC[C@H]2CCO3)n1 (relative stereo) | pIC50 | 5.82
CC#Cc1cncc(-c2ccc3c(c2)[C@]2(C)N=C(N)SC[C@@H]2CCO3)c1 [Example 22a] | pIC50 | 5.09
C[C@]12N=C(N)SC[C@H]1CCCc1cc(F)c(-c3cncnc3)cc12 (relative stereo) | pIC50 | 5.57

Okay, next one:
// sample C[C@]12N=C(N)SC[C@H]1CCCc1ccc(NC(=O)c3ccc(OC(F)F)cn3)cc12 [Example 46a] , its pIC50 was 7.57

* * *

System: Aβ1-42 production in H4 cells stably transfected with APP751 containing the Swedish mutation
Test: Cellular assay for inhibition of Aβ1-42 production (H4 APP751 SWE clone 8.20)
Type: cell-based
Conditions: 19 h, H4 APP751 SWE clone 8.20 cells, 19 h incubation; read-out: Aβ42 cellular IC50
I'd appreciate it if you marked entries condition met when IC50 is lower than 10 µM and condition not met when it is not.

Worked examples, 5 compounds total:
Compound | Class label
C[C@]12N=C(N)SC[C@H]1CCc1ccc(-c3cn[nH]c3)cc12 (relative stereo) | condition met
CC#Cc1cncc(-c2ccc3c(c2)[C@@]2(C)N=C(N)SC[C@H]2CC3)c1 (relative stereo) | condition met
C[C@]12N=C(N)SC[C@H]1CCOc1ccc(Nc3ncnc4ccccc34)cc12 (relative stereo) | condition not met
C[C@]12N=C(N)SC[C@H]1CCOc1ccc(Nc3nccc4ccccc34)cc12 (relative stereo) | condition not met
C[C@@]12N=C(N)SC[C@@H]1CCCc1ccc(NC(=O)c3ccc(C#N)cn3)cc12 [Example 44a] | condition met

Query block: Does COc1cccnc1Nc1ccc2c(c1)[C@@]1(C)N=C(N)SC[C@H]1CCO2 (relative stereo) have IC50 strictly under 10 µM?
Result block: condition met

* * *

Tested on: Aβ1-42 production in H4 cells stably transfected with APP751 containing the Swedish mutation
Experiment: Cellular assay for inhibition of Aβ1-42 production (H4 APP751 SWE clone 8.20)
Type: cell-based
Settings: 19 h, H4 APP751 SWE clone 8.20 cells, 19 h incubation; read-out: Aβ42 cellular IC50
Counter-ions that a name gives are not always drawn.
Recorded endpoint: pIC50
Give bare numbers, as −log10 of the molar value.

Molecule | Recorded endpoint | Value reported
C[C@@]12N=C(N)SC[C@@H]1CCOc1ccc(NC(=O)c3ccc(Cl)cn3)cc12 [Example 33b] | pIC50 | 5.11

Kindly give each listed record's pIC50.
1. C[C@]12N=C(N)SC[C@H]1CCOc1ccc(NC(=O)c3ccc(C#N)cn3)cc12 (relative stereo) [Example 35, 2,2,2-trifluoroacetate salt]
2. C[C@]12N=C(N)SC[C@H]1CCOc1ccc(NC(=O)c3ccc(Cl)cn3)cc12 (relative stereo) [Example 33, 2,2,2-trifluoroacetate salt]
3. C[C@]12N=C(N)SC[C@H]1CCOc1ccc(NC(=O)c3ccc(F)cn3)cc12 (relative stereo) [Example 36, 2,2,2-trifluoroacetate salt]
4. C[C@]12N=C(N)SC[C@H]1CCOc1ccc(-c3cncc4ccccc34)cc12 (relative stereo) [Example 29]
5. C[C@]12N=C(N)SC[C@H]1CCOc1ccc(NC(=O)c3ncc(Cl)cc3Cl)cc12 (relative stereo) [Example 34, 2,2,2-trifluoroacetate salt]

Result block:
[7.55, 7.47, 7.07, 5.34, 7.59]

* * *

Tested on: Aβ1-42 production in H4 cells stably transfected with APP751 containing the Swedish mutation
Assay: Cellular assay for inhibition of Aβ1-42 production (H4 APP751 SWE clone 8.20)
Type: cell-based
Conditions: 19 h, H4 APP751 SWE clone 8.20 cells, 19 h incubation; read-out: Aβ42 cellular IC50
Where a name gives a salt, the structure may show the parent alone.
I'd appreciate it if you marked entries 1.0 when IC50 is lower than 3 µM and 0.0 when it is not.

Compound | Class label
NC1=N[C@@H]2c3cc(-c4cncnc4)ccc3CCC[C@@H]2CS1 (relative stereo) [Example 1] | 0.0
C[C@]12N=C(N)SC[C@H]1CCOc1ccc(-c3cnoc3)cc12 (relative stereo) [Example 25, 2,2,2-trifluoroacetate salt] | 0.0
C[C@]12N=C(N)SC[C@H]1CCOc1ccc(NC(=O)c3ccc(Cl)cn3)cc12 [Example 33a] | 1.0
C[C@]12N=C(N)SC[C@H]1CCc1ccc(NC(=O)c3ccc(F)cn3)cc12 (relative stereo) [Example 9, 2,2,2-trifluoroacetate] | 1.0
CC#Cc1cncc(-c2ccc3c(c2)[C@@]2(C)N=C(N)SC[C@H]2CCO3)c1 (relative stereo) [Example 22] | 1.0
Cc1cc(-c2ccc3c(c2)[C@@]2(C)N=C(N)SC[C@H]2CC3)n(C)n1 (relative stereo) | 0.0
Cc1ncc(-c2ccc3c(c2)[C@@]2(C)N=C(N)SC[C@H]2CCO3)s1 [Example 26b] | 0.0
Cc1ncc(-c2ccc3c(c2)[C@@]2(C)N=C(N)SC[C@H]2CCO3)s1 (relative stereo) [Example 26, 2,2,2-trifluoroacetate salt] | 0.0

Query block: Does C[C@]12N=C(N)SC[C@H]1CCCc1ccc(NC(=O)c3ccc(F)cn3)cc12 [Example 43b] have IC50 strictly under 3 µM?
Result block: 1.0

* * *

System: Aβ1-42 production in H4 cells stably transfected with APP751 containing the Swedish mutation
Assay: Cellular assay for inhibition of Aβ1-42 production (H4 APP751 SWE clone 8.20)
Type: cell-based
Conditions: 19 h, H4 APP751 SWE clone 8.20 cells, 19 h incubation; read-out: Aβ42 cellular IC50
Structures can show the parent of a compound that is named as a salt.
I'd appreciate it if you marked entries condition met when IC50 is lower than 4 µM and condition not met when it is not.

Worked examples, 3 molecules total:
Molecule | Class label
CC#Cc1cncc(-c2ccc3c(c2)[C@@]2(C)N=C(N)SC[C@H]2CCO3)c1 [Example 22b] | condition met
C[C@@]12N=C(N)SC[C@@H]1CCc1ccc(NC(=O)c3ccc(Cl)cn3)cc12 [Example 7a] | condition met
NC1=N[C@@H]2c3cc(-c4cncnc4)ccc3CCC[C@@H]2CS1 [Example 1a] | condition met

Query block: Does C[C@]12N=C(N)SC[C@H]1COc1cc(F)c(NC(=O)c3ccc(Cl)cn3)cc12 (relative stereo) [Example 18, 2,2,2-trifluoroacetate] have IC50 strictly under 4 µM?
Result block: condition not met

Query block: Does C[C@]12N=C(N)SC[C@H]1CCc1ccc(NC(=O)c3ccc(Cl)cn3)cc12 (relative stereo) [Example 7, 2,2,2-trifluoroacetate] have IC50 strictly under 4 µM?
Result block: condition met

Query block: Does Cc1ncc(-c2ccc3c(c2)[C@]2(C)N=C(N)SC[C@@H]2CCO3)s1 [Example 26a] have IC50 strictly under 4 µM?
Result block: condition not met

Query block: Does CC#Cc1cncc(-c2ccc3c(c2)[C@@]2(C)N=C(N)SC[C@H]2CCC3)c1 (relative stereo) [Example 15] have IC50 strictly under 4 µM?
Result block: condition met

Query block: Does C[C@]12N=C(N)SC[C@H]1CCOc1ccc(-c3c[nH]c4ccccc34)cc12 (relative stereo) [Example 30, 2,2,2-trifluoroacetate salt] have IC50 strictly under 4 µM?
Result block: condition not met
